# credit: the supplement of paper PMC9233669

- System: biotinyl-Trp-oxazolone
- assay-overview: self-aminoacylation, catalytic enhancement (BWO) (fold over background); higher = more active; k-Seq, kA / k0A0; sequences stand for … in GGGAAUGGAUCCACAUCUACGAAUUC…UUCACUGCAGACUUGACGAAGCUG
Variants at the floor of the assay were thinned out.
Recorded self-aminoacylation determines the label; the label ranges are Low = under 0.8, Medium = from 0.8 up to 3, High = 3 and over

Exercise: Quick check: band for AUUCACCUCGGUCAUCGGGUU [Fam2.2 aminoacylation ribozyme variant]
Key: Medium

Exercise: Quick check: band for CUACUUCAAAGAAUGGGUCUG [Fam1A.1 aminoacylation ribozyme variant]
Key: Low

Exercise: Quick check: band for AUUAACCUAUGUCAUCGGGUG [Fam2.2 aminoacylation ribozyme variant]
Key: High

Exercise: Quick check: band for CUAUUUCAAACAAUCGGACUG [Fam1A.1 aminoacylation ribozyme variant]
Key: Medium

Exercise: Quick check: band for CCACACCUUAAGCAAUCGGUC [Fam1B.1 aminoacylation ribozyme variant]
Key: Low

Exercise: Quick check: band for AAGCUUGCUAAUGGUCGCAAG [Fam3.1 aminoacylation ribozyme variant]
Key: High

Exercise: Quick check: band for AAGUAUGCUAAUAGACGCAAG [Fam3.1 aminoacylation ribozyme variant]
Key: Low

Exercise: Quick check: band for CCACACCUCAAGCAAUCGGCC [Fam1B.1 aminoacylation ribozyme variant]
Key: Medium

Exercise: Quick check: band for AGUACCCUGGUCAUCAAGUGA [Fam2.1 aminoacylation ribozyme variant]
Key: Medium

###

- Tested on: biotinyl-Phe-oxazolone
- assay-overview: self-aminoacylation, catalytic enhancement (BFO) (fold over background); higher = more active; k-Seq, kA / k0A0; sequences stand for … in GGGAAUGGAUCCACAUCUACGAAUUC…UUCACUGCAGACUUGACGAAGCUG
Fewer inactive variants are shown than the library holds.
Answer 0.0 if self-aminoacylation is under 6, and 1.0 if it is 6 or more.

Exercise: Tell me whether self-aminoacylation is at least 6 here: CUAUUUCAAACAACCGGUCUG [Fam1A.1 aminoacylation ribozyme variant]
Key: 0.0

Exercise: Tell me whether self-aminoacylation is at least 6 here: CCACACUACAAGCAACCGGUC [Fam1B.1 aminoacylation ribozyme variant]
Key: 0.0

Exercise: Tell me whether self-aminoacylation is at least 6 here: AUGACCCUUGUCAUCGAGUGA [Fam2.1 aminoacylation ribozyme variant]
Key: 1.0

Exercise: Tell me whether self-aminoacylation is at least 6 here: AAGGUUGCUAACAGUCGCAAG [Fam3.1 aminoacylation ribozyme variant]
Key: 0.0

Exercise: Tell me whether self-aminoacylation is at least 6 here: GCACAUUUCAAGCAAUCGGUC [Fam1B.1 aminoacylation ribozyme variant]
Key: 0.0

Exercise: Tell me whether self-aminoacylation is at least 6 here: AAGUUAGCUAAUAGUCGCAAA [Fam3.1 aminoacylation ribozyme variant]
Key: 0.0

Exercise: Tell me whether self-aminoacylation is at least 6 here: CUACUUCAAAAAAUCGGUGUG [Fam1A.1 aminoacylation ribozyme variant]
Key: 0.0

Exercise: Tell me whether self-aminoacylation is at least 6 here: AUUAACCUAGGUAAUCGGGUG [Fam2.2 aminoacylation ribozyme variant]
Key: 1.0

###

- System: biotinyl-Met-oxazolone
- assay-overview: self-aminoacylation, catalytic enhancement (BMO) (fold over background); higher = more active; k-Seq, kA / k0A0; sequences stand for … in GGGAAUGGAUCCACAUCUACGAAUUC…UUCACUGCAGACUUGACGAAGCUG
Variants at the floor of the assay were thinned out.
property: self-aminoacylation
The answer should be a number; do not append a unit.

Exercise: Enter recorded self-aminoacylation with biotinyl-Met-oxazolone for AUUACCCGGGUCAUCGAGUGA [Fam2.1 aminoacylation ribozyme variant] here.
Key: 6.91

Exercise: Enter recorded self-aminoacylation with biotinyl-Met-oxazolone for AUACACCAAGGUCAUCGGGUG [Fam2.2 aminoacylation ribozyme variant] here.
Key: 4.18

Exercise: Enter recorded self-aminoacylation with biotinyl-Met-oxazolone for AUUGACCUAGGUCGUCGGGUG [Fam2.2 aminoacylation ribozyme variant] here.
Key: 1.44

Exercise: Enter recorded self-aminoacylation with biotinyl-Met-oxazolone for AUAACCCAGGUCAUCGAGUGA [Fam2.1 aminoacylation ribozyme variant] here.
Key: 5.5

Exercise: Enter recorded self-aminoacylation with biotinyl-Met-oxazolone for AUUCACGUAGGUCAUCGGGUU [Fam2.2 aminoacylation ribozyme variant] here.
Key: 2.4
